- study system: T1, human wt-ERβ LBD (estrogen receptor beta ligand-binding domain, amino acids 261-502) (human, UniProt Q92731 261-502)
- T1 construct: Cloned into pET-32a; N-terminal thioredoxine-hexahistidine tag removed with TEV protease; not shown: thioredoxin, N-terminal, cleaved; His6, N-terminal, cleaved
- T1 sequence (Q92731 261-502): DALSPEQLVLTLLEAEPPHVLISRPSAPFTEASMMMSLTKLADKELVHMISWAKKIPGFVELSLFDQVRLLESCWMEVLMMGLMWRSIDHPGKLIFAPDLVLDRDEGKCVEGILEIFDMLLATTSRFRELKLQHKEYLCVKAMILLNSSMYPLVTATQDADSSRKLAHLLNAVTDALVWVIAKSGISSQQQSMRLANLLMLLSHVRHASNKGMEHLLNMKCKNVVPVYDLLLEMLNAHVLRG
- assay method text: fluorescence polarisation; fluorescence anisotropy; 4 nM fluorescein-SRC-1 NR2 peptide, LBD diluted 2-fold from 10 uM (ERα) or 20 uM (ERβ); with BPC at 20 uM (ERα) or 40 uM (ERβ); 20 mM Tris pH 8.0, 150 mM NaCl, 5 mM DTT, 10% glycerol
- test context: both partners purified
Where no end group is shown, it is not given here. fluorescein = fluorescein label on the N-terminus of the peptide
quantity kind: Kd (µM)
Numbers only here, please. The scale is µM.

Entry fluorescein-RHKILHRLLQEGS (also called SRC-1 NR2 peptide; fluorescein-labeled SRC-1 NR2 peptide; source: bought: EZbiolab) [fluorescein-RHKILHRLLQEGS peptide corresponding to the NR box 2-binding motif of SRC-1] ; Kd = 6.32
